Target: apolipoprotein E binding to heparin
Test: Inhibition of 125I-apolipoprotein E binding to heparin-BSA
Details: Table 2, free peptide; read-out: IC50 Apo E Binding to Heparin
Peptide text beside a SMILES is read from it.
measurement.name: pIC50
Schema: pIC50 number; meaning minus log10 of the concentration expressed in molar units.

| compound | pIC50 |
| --- | --- |
| C[C@@H](O)[C@H](NC(=O)[C@H](CO)NC(=O)[C@H](CS)NC(=O)[C@H](CO)NC(=O)[C@@H](NC(=O)[C@H](Cc1c[nH]c2ccccc12)NC(=O)[C@H](CCC(=O)O)NC(=O)[C@H](CO)NC(=O)[C@H](Cc1c[nH]c2ccccc12)NC(=O)[C@@H]1CCCN1C(=O)[C@@H](N)CO)[C@@H](C)O)C(=O)N[C@@H](CO)C(=O)O [Peptide 184, SPWSEWTSCSTS] (H-SPWSEWTSCSTS-OH) | 5.38 |

Proceed to the following item.
query: Quick one: pIC50 of N[C@@H](Cc1c[nH]c2ccccc12)C(=O)N[C@@H](CO)C(=O)N1CCC[C@H]1C(=O)N[C@@H](Cc1c[nH]c2ccccc12)C(=O)N[C@@H](CO)C(=O)N[C@@H](CO)C(=O)N[C@@H](CS)C(=O)N[C@@H](CO)C(=O)O [Peptide 240, WSPWSSCS] (H-WSPWSSCS-OH) ?
result: 3.82

----------
Reported IC50 values follow for various compounds
Target: thrombospondin binding to sulfatide
Assay: Inhibition of 125I-thrombospondin binding to sulfatide
Conditions: Table 1, free peptide
Peptide text beside a SMILES is read from it.

| compound | measurement.target | IC50 |
| --- | --- | --- |
| CC(C)C[C@H](NC(=O)[C@H](CCCNC(=N)N)NC(=O)[C@H](CO)NC(=O)[C@H](CCCNC(=N)N)NC(=O)[C@H](CCCCN)NC(=O)[C@H](CCC(N)=O)NC(=O)[C@@H](NC(=O)CNC(=O)CNC(=O)CNC(=O)[C@H](CS)NC(=O)[C@@H](NC(=O)[C@@H](N)C(C)C)[C@@H](C)O)C(C)C)C(=O)O [Peptide 245, VTCGGGVQKRSRL] (H-VTCGGGVQKRSRL-OH) | thrombospondin binding to sulfatide | > 200 µM |
| CC[C@H](C)[C@H](NC(=O)[C@H](CC(=O)O)NC(=O)[C@H](Cc1c[nH]c2ccccc12)NC(=O)[C@@H]1CCCN1C(=O)[C@H](CO)NC(=O)[C@H](Cc1c[nH]c2ccccc12)NC(=O)[C@@H]1CCCN1C(=O)CN)C(=O)N[C@@H](CS)C(=O)N[C@@H](CO)C(=O)N[C@H](C(=O)N[C@H](C(=O)O)[C@@H](C)O)C(C)C [Peptide 186, GPWSPWDICSVT] (H-GPWSPWDICSVT-OH) | thrombospondin binding to sulfatide | 27 µM |

Please examine the following record next.
query: Which IC50 is reported for this compound? CC[C@H](C)[C@H](NC(=O)[C@@H](NC(=O)CNC(=O)[C@H](CC(=O)O)NC(=O)CNC(=O)[C@H](CS)NC(=O)[C@@H](NC(=O)[C@@H](N)C(C)C)[C@@H](C)O)C(C)C)C(=O)N[C@H](C(=O)N[C@@H](CCCNC(=N)N)C(=O)O)[C@@H](C)O [Peptide 205, VTCGDGVITR] (H-VTCGDGVITR-OH)
result: > 200 µM

From: patent US5770563A
